Would you mind telling me the reported RU of Fab binding at 100 nM of each entry?
- measured.target: recombinant huCD3ε/γ protein with Fc-tag (PB01225) (human, UniProt P07766 23-126; P09693 23-116)
- protocol.summary: SPR, CD3-Fc captured, Fab 100 nM
// note: answer is a bare numeric in RU

Item under review: 20E5-F10 Fab (Fab, V domains shown, also called 20E5-F10-huFab) VH: EVQLVETGENLVQPGKSLRLTCATSGFSFSNAWMHWIRQSPEKQLEWVAQIKDKSNNYATYYAESVNGRFTISRDDSKSSIYLHMDNLKEEDSAIYYCRYVHYGVRFFYTMDVWGQGTSVTVSS VL: DVVMTQTPVSLSVSLGDQVSISCRPSQSLVHNNGNTYLSWYLQKPGQSPHPLIYKVSNRFSGISDRFSGSGSGTDFTLKISRVEPDDLGVYYCGQGTQYPFTFGSGTKLEIK . Reported RU of Fab binding at 100 nM?
8

Item under review: 10E6-G6 Fab (Fab, V domains shown) VH: EVQLVETGGGLVQSGKSLKLTCATSGFTVTNAWMHWVRQSPEKQLEWVAQIKAKSNNYETYYAESVKGRFTISRDDSKSSVYLQMNSLKEEDTAIYYCRGTQYGYNPFDYWGQGVMVTVSS VL: DVVMTQSPVSLSVSLGGQVSISCRSSQSLVHNNGYTYLSWYLQKPGQSPQVFIYKVSNRFSGISDRFSGSGSGTDFTLKISRIEPDDLGVYYCGQGTHYPFTFGSGTKLEIK . Reported RU of Fab binding at 100 nM?
8

Item under review: 1E6-C9 Fab (Fab, V domains shown, also called 1E6-B8; 1E6-B8/B9-C9-Fab) VH: EVQLVETGGSLVQPGKSLKLTCATSGFTFSYAWMHWVRQSPDKQLQWVAQIKAKSNNYATYYAESVEGRFTISRDDSKSSVYLQMNSLKEEDTAIYYCRGVYYGLLGLDAWGQGTSVTVSS VL: DVVMTQTPVSLSVRLGGQVSISCRSSQSLVHNNGNTYLSWFLQKPGQSPQLLIYKVSNRFSGISDRFSGSASGTDFTLKISRVEPDDLGVYYCGQGTHYPFTFGSGTKLEIK . Reported RU of Fab binding at 100 nM?
7

Item under review: 4B4-D7 Fab (Fab, V domains shown, also called BDW-4B4-D7) VH: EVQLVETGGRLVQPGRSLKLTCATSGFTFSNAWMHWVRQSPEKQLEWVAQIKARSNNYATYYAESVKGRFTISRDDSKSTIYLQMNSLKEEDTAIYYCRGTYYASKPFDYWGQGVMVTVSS VL: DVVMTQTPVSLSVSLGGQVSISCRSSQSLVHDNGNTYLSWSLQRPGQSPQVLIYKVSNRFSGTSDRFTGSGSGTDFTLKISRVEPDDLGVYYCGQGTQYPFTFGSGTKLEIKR . Reported RU of Fab binding at 100 nM?
3

Item under review: 11F9-F8 Fab (Fab, V domains shown, also called 11F9-F8-huFab) VH: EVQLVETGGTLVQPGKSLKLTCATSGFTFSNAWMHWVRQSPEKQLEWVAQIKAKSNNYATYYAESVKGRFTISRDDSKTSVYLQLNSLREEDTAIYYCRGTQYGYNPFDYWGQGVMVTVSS VL: DVVLTQTPVSLSVSLGGQVSISCRSSQSLVHNNGNTYLSWSLQKPGQSPQVLIYKVSNRFSGISNRFSGSGSGTDFTLKISRVEPDDLGVYYCGQGAHYPFTFGSGTKLEIK . Reported RU of Fab binding at 100 nM?
7

Item under review: 18G9-H11 Fab (Fab, V domains shown) VH: EVQLVETGGSLVQPGKSLKLTCATSGFTFSNAWIQWVRQSPEKQLEWVAQIKAKSNNYATYYAESVKGRFTISRDDSKSSVYLQMNSLKEEDTALYYCTWRHYYSSHTMDAWGQGTLVTVSS VL: DVVMTQTPVSLSVSLGGQVSISCRSSQSLVHNNGNTYLSWYLQKPGQSPQLLIYKVSNRFSGISDRFSGSGSGTDFTLKISRVAPTDLGVYYCGQGSQYPFTFGAGTKLELK . Reported RU of Fab binding at 100 nM?
3
